test system: human blood coagulation factor XIII; assay: optimum concentration of stabilizers: residual factor XIII activity after 60° C. for 30 minutes (Example 1); format: physicochemical; conditions: additive conc. 5.0 w/v %
assay metric: Residual Activity Rate (%)
Just the number in %, nothing appended.

Example cases with answers are listed next.
>  <compound>
N[C@@H](CCC(=O)[O-])C(=O)[O-].[Na+].[Na+] [Sodium L-glutamate, sodium L-glutamate]

>  <assay metric>
Residual Activity Rate

>  <measured number>
79.4

$$$$
>  <compound>
N[C@@H](CC(=O)[O-])C(=O)[O-].[Na+].[Na+] [Sodium L-aspartate, sodium L-aspartate]

>  <assay metric>
Residual Activity Rate

>  <measured number>
58.8

$$$$
>  <compound>
OC[C@@H](O)[C@@H](O)[C@H](O)[C@@H](O)CO [D-Sorbitol]

>  <assay metric>
Residual Activity Rate

>  <measured number>
74.5

$$$$

Turning to the following compound.
Annotate the compound OC[C@H]1O[C@@](CO)(O[C@H]2O[C@H](CO)[C@@H](O)[C@H](O)[C@H]2O)[C@@H](O)[C@@H]1O [Sucrose] with its measured Residual Activity Rate.
90.0

* * *

system: factor XIII prepared by recombinant DNA technology; assay: storage stabilizer effect on factor XIII prepared by recombinant DNA technology; assay type: physicochemical, human

>  <compound>
NC(=O)CC[C@H](N)C(=O)O

>  <system tested>
factor XIII prepared by recombinant DNA technology

>  <effect as storage stabilizer (in words)>
ineffective

$$$$
>  <compound>
NCC(=O)O

>  <system tested>
factor XIII prepared by recombinant DNA technology

>  <effect as storage stabilizer (in words)>
ineffective

$$$$
>  <compound>
O=C(O)[C@@H]1C[C@@H](O)CN1 [hydroxyproline]

>  <system tested>
factor XIII prepared by recombinant DNA technology

>  <effect as storage stabilizer (in words)>
ineffective

$$$$
>  <compound>
C[C@H](N)C(=O)O

>  <system tested>
factor XIII prepared by recombinant DNA technology

>  <effect as storage stabilizer (in words)>
ineffective

$$$$

* * *

system: human blood coagulation factor XIII; test: optimum concentration of stabilizers: residual factor XIII activity after 60° C. for 30 minutes (Example 1); assay type: physicochemical; settings: additive conc. 10 w/v %
assay metric: Residual Activity Rate
Your reply should be a number followed by the unit it is expressed in.

Example cases with answers are listed next.
>  <molecule>
OC[C@@H](O)[C@@H](O)[C@H](O)[C@@H](O)CO

>  <result>
94.0%

$$$$
>  <molecule>
OC[C@H]1O[C@@](CO)(O[C@H]2O[C@H](CO)[C@@H](O)[C@H](O)[C@H]2O)[C@@H](O)[C@@H]1O

>  <result>
99.0%

$$$$

Annotate the molecule N[C@@H](CC(=O)[O-])C(=O)[O-].[Na+].[Na+] [Sodium L-aspartate, sodium L-aspartate] with its measured Residual Activity Rate.
55.4%

Annotate the molecule N[C@@H](CCC(=O)[O-])C(=O)[O-].[Na+].[Na+] [Sodium L-glutamate, sodium L-glutamate] with its measured Residual Activity Rate.
65.3%
